Below is a list of entries, each paired with its recorded ED50 value.
Tested on: Mus musculus
protocol: Analgesic potency (antinociceptive activity) (administered icv) at peak time of 20 min in male Swiss-Webster mice
Type: functional
Where a SMILES comes first, the peptide text is derived from it. Side-chain parts run from the residue outwards. The star is where a group is joined. Oxymorphamine(6α) = CN1CC[C@]23c4c5ccc(O)c4O[C@H]2[C@@H](N*)CC[C@@]3(O)[C@H]1C5
Lab book: enter the figure in nM, no units written.

Solved cases (3 shown):
CC(=O)N[C@H]1CC[C@@]2(O)[C@H]3Cc4ccc(O)c5c4[C@@]2(CCN3C)[C@H]1O5 = 5.4
CC(C)C[C@H](NC(=O)[C@H](Cc1ccccc1)NC(=O)CNC(=O)[C@H](CCC(=O)N[C@H]1CC[C@@]2(O)[C@H]3Cc4ccc(O)c5c4[C@@]2(CCN3C)[C@H]1O5)NC(=O)[C@@H](N)Cc1ccc(O)cc1)C(=O)O (H-YE(Oxymorphamine(6α))GFL-OH) = 0.7
CC(C)C[C@H](NC(=O)[C@H](Cc1ccccc1)NC(=O)CNC(=O)[C@H](CCC(=O)NCC(=O)NCC(=O)N[C@H]1CC[C@@]2(O)[C@H]3Cc4ccc(O)c5c4[C@@]2(CCN3C)[C@H]1O5)NC(=O)[C@@H](N)Cc1ccc(O)cc1)C(=O)O (H-YE([Gly-Gly-Oxymorphamine(6α)])GFL-OH) = 5

Turning to the following compound.
Recorded ED50 for "CC(=O)NCC(=O)NCC(=O)N[C@H]1CC[C@@]2(O)[C@H]3Cc4ccc(O)c5c4[C@@]2(CCN3C)[C@H]1O5" , please?
3.1

====

systemName: Mu-type opioid receptor (Cavia porcellus)
Sequence (P97266 whole entry): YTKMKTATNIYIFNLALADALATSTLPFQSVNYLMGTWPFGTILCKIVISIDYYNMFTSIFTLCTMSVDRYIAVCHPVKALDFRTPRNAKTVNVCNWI
protocol: Binding affinity of Opioid receptor mu 1 by the displacement of mu-selective [3H]DAGO from brain membrane preparations.
Where a SMILES comes first, the peptide text is derived from it. Side-chain parts run from the residue outwards. The star is where a group is joined. Oxymorphamine(6α) = CN1CC[C@]23c4c5ccc(O)c4O[C@H]2[C@@H](N*)CC[C@@]3(O)[C@H]1C5
Reported pKi values for a set of compounds
Quick note: pKi means taking -log10 of the concentration in moles per liter.

CC(=O)NCC(=O)NCC(=O)N[C@H]1CC[C@@]2(O)[C@H]3Cc4ccc(O)c5c4[C@@]2(CCN3C)[C@H]1O5 = 8.26
CC(C)C[C@H](NC(=O)[C@H](Cc1ccccc1)NC(=O)CNC(=O)[C@H](CCC(=O)NCC(=O)NCC(=O)N[C@H]1CC[C@@]2(O)[C@H]3Cc4ccc(O)c5c4[C@@]2(CCN3C)[C@H]1O5)NC(=O)[C@@H](N)Cc1ccc(O)cc1)C(=O)O (H-YE([Gly-Gly-Oxymorphamine(6α)])GFL-OH) = 7.95
CC(=O)N[C@H]1CC[C@@]2(O)[C@H]3Cc4ccc(O)c5c4[C@@]2(CCN3C)[C@H]1O5 = 8.74
CC(C)C[C@H](NC(=O)[C@H](Cc1ccccc1)NC(=O)CNC(=O)[C@H](CCC(=O)NCC(=O)NCC(N)=O)NC(=O)[C@@H](N)Cc1ccc(O)cc1)C(=O)O (H-YE([Gly-Gly-NH2])GFL-OH) = 7.28

Consider now this further compound.
Which measured pKi value corresponds to CC(C)C[C@H](NC(=O)[C@H](Cc1ccccc1)NC(=O)CNC(=O)[C@H](CCC(=O)N[C@H]1CC[C@@]2(O)[C@H]3Cc4ccc(O)c5c4[C@@]2(CCN3C)[C@H]1O5)NC(=O)[C@@H](N)Cc1ccc(O)cc1)C(=O)O (H-YE(Oxymorphamine(6α))GFL-OH) ?
7.72

====

Listing of entries alongside the reported IC50.
Organism: Mus musculus
protocol: Opioid agonist potencies was determined by mouse vas deferens (MVD)
Assay type: functional
Where a SMILES comes first, the peptide text is derived from it. Side-chain parts run from the residue outwards. The star is where a group is joined. Oxymorphamine(6α) = CN1CC[C@]23c4c5ccc(O)c4O[C@H]2[C@@H](N*)CC[C@@]3(O)[C@H]1C5
Write the number in nM without appending the unit.

As a guide, the following entries are already answered.
CC(=O)NCC(=O)NCC(=O)N[C@H]1CC[C@@]2(O)[C@H]3Cc4ccc(O)c5c4[C@@]2(CCN3C)[C@H]1O5 = 78
CC(C)C[C@H](NC(=O)[C@H](Cc1ccccc1)NC(=O)CNC(=O)[C@H](CCC(=O)NCC(=O)NCC(N)=O)NC(=O)[C@@H](N)Cc1ccc(O)cc1)C(=O)O (H-YE([Gly-Gly-NH2])GFL-OH) = 61.8
CC(=O)N[C@H]1CC[C@@]2(O)[C@H]3Cc4ccc(O)c5c4[C@@]2(CCN3C)[C@H]1O5 = 166
CC(C)C[C@H](NC(=O)[C@H](Cc1ccccc1)NC(=O)CNC(=O)[C@H](CCC(=O)N[C@H]1CC[C@@]2(O)[C@H]3Cc4ccc(O)c5c4[C@@]2(CCN3C)[C@H]1O5)NC(=O)[C@@H](N)Cc1ccc(O)cc1)C(=O)O (H-YE(Oxymorphamine(6α))GFL-OH) = 26.9

With those in mind, consider the next compound.
Can you share its IC50? I mean this compound: CC(C)C[C@H](NC(=O)[C@H](Cc1ccccc1)NC(=O)CNC(=O)[C@H](CCC(=O)NCC(=O)NCC(=O)N[C@H]1CC[C@@]2(O)[C@H]3Cc4ccc(O)c5c4[C@@]2(CCN3C)[C@H]1O5)NC(=O)[C@@H](N)Cc1ccc(O)cc1)C(=O)O (H-YE([Gly-Gly-Oxymorphamine(6α)])GFL-OH)
47.7

====

Organism: Cavia porcellus
protocol: Opioid agonist potencies was determined by electrically stimulated guinea pig ileum (GPI)
Assay type: functional
Where a SMILES comes first, the peptide text is derived from it. Side-chain parts run from the residue outwards. The star is where a group is joined. Oxymorphamine(6α) = CN1CC[C@]23c4c5ccc(O)c4O[C@H]2[C@@H](N*)CC[C@@]3(O)[C@H]1C5
// reported IC50 per item
Answer format: numeric, µM implied, no suffix.

CC(C)C[C@H](NC(=O)[C@H](Cc1ccccc1)NC(=O)CNC(=O)[C@H](CCC(=O)NCC(=O)NCC(N)=O)NC(=O)[C@@H](N)Cc1ccc(O)cc1)C(=O)O (H-YE([Gly-Gly-NH2])GFL-OH) = 0.597
CC(=O)N[C@H]1CC[C@@]2(O)[C@H]3Cc4ccc(O)c5c4[C@@]2(CCN3C)[C@H]1O5 = 0.136
CC(C)C[C@H](NC(=O)[C@H](Cc1ccccc1)NC(=O)CNC(=O)[C@H](CCC(=O)N[C@H]1CC[C@@]2(O)[C@H]3Cc4ccc(O)c5c4[C@@]2(CCN3C)[C@H]1O5)NC(=O)[C@@H](N)Cc1ccc(O)cc1)C(=O)O (H-YE(Oxymorphamine(6α))GFL-OH) = 0.0075

Entry under review: CC(C)C[C@H](NC(=O)[C@H](Cc1ccccc1)NC(=O)CNC(=O)[C@H](CCC(=O)NCC(=O)NCC(=O)N[C@H]1CC[C@@]2(O)[C@H]3Cc4ccc(O)c5c4[C@@]2(CCN3C)[C@H]1O5)NC(=O)[C@@H](N)Cc1ccc(O)cc1)C(=O)O (H-YE([Gly-Gly-Oxymorphamine(6α)])GFL-OH) . Reported IC50?
0.0572

"CC(=O)NCC(=O)NCC(=O)N[C@H]1CC[C@@]2(O)[C@H]3Cc4ccc(O)c5c4[C@@]2(CCN3C)[C@H]1O5" , same question.
0.0823
